Source of measurements: patent US12156922B2

Assay: Low temperature CW-EPR of Cu(II) binding to Ctr1 N-terminal peptides in KPi buffer
Details: peptide:Cu(II) molar ratio 1:3; 130 K
Experimental: Continuous wave electron […] (CW-EPR) spectra were recorded using an Elexsys™ E500 spectrometer (Bruker) operating at 9.0-9.5 GHz, equipped with a super-high-sensitivity CW resonator. The spectra were recorded at room temperature (RT; 295±2 K) or at low temperature (130±5 K) at a microwave power of 20.0 mW, modulation amplitude of 1.0 G, time constant of 60 or 80 milliseconds, and receiver gain of 60.0 dB. […]
The sequences listed here are annotated with their percentage of Cu(II) bound to peptide (species other than 4O coordination).
ENDPOINT: percentage of Cu(II) bound to peptide (species other than 4O coordination) (%)

INSERT INTO assay_data (sequence_code, readout_value) VALUES
  ('MDASHHMGMSYMDS (Pep3 peptide amino acid sequence)', 55),
  ('MDHSHHMGMSYMDS (Pep1 peptide amino acid sequence)', 70),
  ('MDHSHHMAMSYMDS (Pep2 peptide amino acid sequence)', 58),
  ('MDHSHAMGMSYMDS (Pep5 peptide amino acid sequence)', 30);
